assay: melting temperature; fluorescence melt of hairpins on a sequencing array, two-state fit, raised by 9.35 °C to match UV melts; settings: sodium 0.088 M
Give Tm for every item shown.
Reply numerically in °C, unit not repeated.

## Task Look at this sequence and give its reported Tm. GAGCCCCGAAAGGGCCTC (((.(((....))).)))
## Result 47.3

## Task Now give it for GCCCTGCGAAAGCCCGGC (((..((....))..))) too.
## Result 39.1

## Task Now give it for GTGATTGAAAAATCAC ((((((....)))))) too.
## Result 51.7

## Task Now give it for GATCTGCGAACAGATC ((((((....)))))) too.
## Result 49.4

## Task Now give it for GATCTTGGCGAAGATC ((((((....)))))) too.
## Result 47

## Task Now give it for GTGATCACGAAAGTGCAC (((..(((....)))))) too.
## Result 30.7

## Task Now give it for GGACTCGAAAGAGTTCC ((((((....))).))) too.
## Result 50.3

## Task Now give it for GTCCTCTCGAAAGAGGAC (((..(((....)))))) too.
## Result 58.5

## Task Now give it for GCCACCGAAAGGTTAGGC ((((((....)))..))) too.
## Result 51.1

## Task Now give it for GGGCAACGAAAGTTCCC (((.(((....)))))) too.
## Result 47.4

## Task Now give it for GTAAGTCGAAAGACCTAC (((.(((....))).))) too.
## Result 35.7

## Task Now give it for CCGAGGAAACTCGG (((((....))))) too.
## Result 55.9

## Task Now give it for GGTTGCGAAAGCAGCACC ((((((....)))..))) too.
## Result 41

## Task Now give it for CTACTGAAAAGTAG (((((....))))) too.
## Result 44.3

## Task Now give it for ATGACGAAAGTCAT (((((....))))) too.
## Result 56.8

## Task Now give it for GCGCGGCGAAAGCACCGC (((..((....))..))) too.
## Result 56.1

## Task Now give it for GTGCGGCGAAAGCCCAC (((.(((....)))))) too.
## Result 57.6

## Task Now give it for GACCGCGAAAGCGTGTC ((((((....))).))) too.
## Result 63.5

## Task Now give it for GAGACCCCGAAAGGGCTC (((..(((....)))))) too.
## Result 47.2

## Task Now give it for GGCTTTCGAAAGAACGCC (((.(((....))).))) too.
## Result 50.2

## Task Now give it for GTAAAGCGAAAGCTATAC (((.(((....))).))) too.
## Result 41.3

## Task Now give it for GGTTTACGAAAGTATACC (((.(((....))).))) too.
## Result 45.5

## Task Now give it for GACTCCCGAAAGGGGTC (((.(((....)))))) too.
## Result 50.8

## Task Now give it for GCCTTACGAAAGTATGGC (((.(((....))).))) too.
## Result 55.6

## Task Now give it for GAATCTGGAAACAGACTC ((.((((....)))).)) too.
## Result 29.1
